Reference for the values: paper PMC5050560

- assay system: cdPadR1 (Clostridium difficile R20291, UniProt A0A9R0CDW8 1-109)
- procedure summary: EMSA; 20 mM Tris pH 8.0, 120 mM KCl, 10 mM MgCl2, 5 mM DTT, 12.5% glycerol, 125 ug/mL heparin, room temperature
- conditions: protein: recombinant; tags: N-terminal Strep II; chain copies: 2
measured attribute: binding result

Worked examples follow.
binder: Pr47 (dsDNA) DNA 1: TCTTGACCTCGATAAGTGTCGTAAGTCAAGGGTAATTTATATATCAGTGAAAAATAATTACATTTAATCTAATGTTTTTAGAGAGGAGGATGCTATGTTA DNA 2: TAACATAGCATCCTCCTCTCTAAAAACATTAGATTAAATGTAATTATTTTTCACTGATATATAAATTACCCTTGACTTACGACACTTATCGAGGTCAAGA
binding result: no binding
//
binder: Pr67 (dsDNA) DNA 1: AGTACTATACATTATAGAGTAGT DNA 2: ACTACTCTATAATGTATAGTACT
binding result: binds
//
binder: Pr46 (dsDNA) DNA 1: TTTTTTTATTTATAAACATTATTAAAAAAATATAGATGTTTTGGTTATATTCCTTGTCCTTTATAAATAGAATTATATAAACAAAGGAGGAGGACAAGAG DNA 2: CTCTTGTCCTCCTCCTTTGTTTATATAATTCTATTTATAAAGGACAAGGAATATAACCAAAACATCTATATTTTTTTAATAATGTTTATAAATAAAAAAA
binding result: binds
//
binder: Pr121 (dsDNA) DNA 1: AAGCTACCTTGCATAAATATCTTGGATAGTATATTGATTATATAATCAGTAAATGTTATACTTTTCATGACGATAAAAACATTTTAGTCATAAGGGGGTT DNA 2: AACCCCCTTATGACTAAAATGTTTTTATCGTCATGAAAAGTATAACATTTACTGATTATATAATCAATATACTATCCAAGATATTTATGCAAGGTAGCTT
binding result: binds
//
binder: Pr96 (dsDNA) DNA 1: AAGTAACATACCCAATTTTGAGGT DNA 2: ACCTCAAAATTGGGTATGTTACTT
binding result: no binding
//
binder: Pr105 (dsDNA) DNA 1: AAAAGATGTCATGATAAGTCATGTAA DNA 2: TTACATGACTTATCATGACATCTTTT
binding result: no binding
//
binder: Pr111 (dsDNA) DNA 1: ATATAGGAAATATAGAACAGATTTTCCAAGAAATCTAAATATTCTATGACCACGTGAATTGCTATGCACACATGTTGATAATCCATATTTTAAATCTAAA DNA 2: TTTAGATTTAAAATATGGATTATCAACATGTGTGCATAGCAATTCACGTGGTCATAGAATATTTAGATTTCTTGGAAAATCTGTTCTATATTTCCTATAT
binding result: binds
//
binder: Pr119 (dsDNA) DNA 1: TTTCAACCACTCCTCTTAGTTTGATTTGGTAAGTTTAGGTCGGTATTTATTATATAATATAAATGAAACATTATATAATGGAAAAATTTCCCAGTAAACT DNA 2: AGTTTACTGGGAAATTTTTCCATTATATAATGTTTCATTTATATTATATAATAAATACCGACCTAAACTTACCAAATCAAACTAAGAGGAGTGGTTGAAA
binding result: binds

Prompt: Query: binding result; subject: Pr42 (dsDNA) DNA 1: CTATACATTATAG DNA 2: CTATAATGTATAG
Response: no binding

Prompt: Query: binding result; subject: Pr106 (dsDNA) DNA 1: AAAATTTATCATTATATAAGTAACATAC DNA 2: GTATGTTACTTATATAATGATAAATTTT
Response: no binding

Prompt: Query: binding result; subject: Pr48 (PnorV) (dsDNA) DNA 1: TTTTAACCCTCCTAAAATTTATCATTATATAAGTAACATACCCAATTTTGAGGTGAATGAAACAAAAGATGTCATGATAAGTCATGTAAAACAATAGTTT DNA 2: AAACTATTGTTTTACATGACTTATCATGACATCTTTTGTTTCATTCACCTCAAAATTGGGTATGTTACTTATATAATGATAAATTTTAGGAGGGTTAAAA
Response: binds

Prompt: Query: binding result; subject: Pr103 (dsDNA) DNA 1: TATATAAGTAACATACCCAATTTTGAGGTGAATGAAACAAAAGATGTCAT DNA 2: ATGACATCTTTTGTTTCATTCACCTCAAAATTGGGTATGTTACTTATATA
Response: no binding

Prompt: Query: binding result; subject: Pr30 (dsDNA) DNA 1: TATAGTAAATATAAGTACTATACATTATAGAGTAGTAGGTGAAAAGGCGGTGGTACATAATGCAGTTA DNA 2: TAACTGCATTATGTACCACCGCCTTTTCACCTACTACTCTATAATGTATAGTACTTATATTTACTATA
Response: binds

Prompt: Query: binding result; subject: Pr33 (dsDNA) DNA 1: GAGTACTATGTATTATTATAGTAAATATAAGTACTATACATTATAGAGTAGTAG DNA 2: CTACTACTCTATAATGTATAGTACTTATATTTACTATAATAATACATAGTACTC
Response: binds

Prompt: Query: binding result; subject: Pr34 (dsDNA) DNA 1: TTTGATGAAAAAAATGTTACAATATTTAATATTGAAAATGGCGATGTTATTAGCATAGAGAATGGAGGAAATTAAATGAAACAAGAATACGGTGCAAGTC DNA 2: GACTTGCACCGTATTCTTGTTTCATTTAATTTCCTCCATTCTCTATGCTAATAACATCGCCATTTTCAATATTAAATATTGTAACATTTTTTTCATCAAA
Response: binds
